Test system: Shigella flexneri
assay_comment: growth AUC normalised to DMSO control (fraction of control); higher = less growth inhibition, active = hit call of the paper
condition_info: 20 µM
Counter-ions that a name gives are not always drawn.
Classes used: active, inactive

[
  {
    "compound": "C[N+](C)(CCOc1ccccc1)Cc1ccccc1.O=C([O-])c1cc2ccccc2cc1O [Bephenium hydroxynaphthoate]",
    "answer_label": "inactive"
  },
  {
    "compound": "CO[C@@H]1[C@@H](O[C@@H]2O[C@H](C)[C@@H](O[C@H]3C[C@@](C)(O)[C@@H](OC(=O)CC(C)C)[C@H](C)O3)[C@H](N(C)C)[C@H]2O)[C@@H](CC=O)C[C@@H](C)[C@@H](O)/C=C/C=C/C[C@@H](C)OC(=O)C[C@H]1OC(C)=O [Josamycin]",
    "answer_label": "inactive"
  },
  {
    "compound": "CCn1cc(C(=O)O)c(=O)c2ccc(C)nc21 [Nalidixic acid sodium salt]",
    "answer_label": "active"
  },
  {
    "compound": "CNCCC=C1c2ccccc2C=Cc2ccccc21 [Norcyclobenzaprine]",
    "answer_label": "inactive"
  }
]

----------
System: P. vulgatus WT;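 note: active when median AUC fell below 0.1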
assay_comment: growth AUC normalised to DMSO control (median) (fraction of control); higher = less growth inhibition, active = hit call of the paper
condition_info: 20 µM
Counter-ions that a name gives are not always drawn.
measurement_type: growth AUC normalised to DMSO control

[
  {
    "compound": "CN(C)CCN1C(=O)c2ccccc2N(C)c2ccccc21 [Dibenzepine hydrochloride]",
    "recorded_number": 0.979
  },
  {
    "compound": "O=C(CCCN1CCC(O)(c2ccc(Br)cc2)CC1)c1ccc(F)cc1 [Bromperidol]",
    "recorded_number": 1.01
  },
  {
    "compound": "COCCOC(=O)C1=C(C)NC(C)=C(C(=O)OC/C=C/c2ccccc2)C1c1cccc([N+](=O)[O-])c1 (stereo not drawn) [Cilnidipine]",
    "recorded_number": 0.98
  },
  {
    "compound": "CC(C)n1c(/C=C/C(O)CC(O)CC(=O)O)c(-c2ccc(F)cc2)c2ccccc21 (stereo not drawn) [Fluvastatin sodium salt]",
    "recorded_number": 1
  },
  {
    "compound": "COc1ccc(-c2ccc3cc(C(=O)O)ccc3c2)cc1C12CC3CC(CC(C3)C1)C2 [Adapalene]",
    "recorded_number": 1
  },
  {
    "compound": "CCc1oc2ccccc2c1C(=O)c1cc(Br)c(O)c(Br)c1 [Benzbromarone]",
    "recorded_number": 0.699
  },
  {
    "compound": "CCN(CC)CCNC(=O)c1cc(S(C)(=O)=O)ccc1OC [Tiapride hydrochloride]",
    "recorded_number": 0.952
  },
  {
    "compound": "C=C1/C(=C\\C=C2/CCC[C@]3(C)[C@@H]([C@H](C)/C=C/[C@@H](O)C4CC4)CC[C@@H]23)C[C@@H](O)C[C@@H]1O [Calcipotriene]",
    "recorded_number": 0.958
  }
]

----------
Tested on: Salmonella enterica typhimurium
assay_comment: growth AUC normalised to DMSO control (fraction of control); higher = less growth inhibition, active = hit call of the paper
condition_info: 20 µM
Where a name gives a salt, the structure may show the parent alone.
Classes used: Yes for active, No for inactive

[
  {
    "molecule": "Cc1cc(NS(=O)(=O)c2ccc(N)cc2)no1 [Sulfamethoxazole]",
    "study_system": "Salmonella enterica typhimurium",
    "answer_label": "No"
  },
  {
    "molecule": "COc1cc([S+](C)[O-])ccc1-c1nc2cccnc2[nH]1 (stereo not given) [Sulmazole]",
    "study_system": "Salmonella enterica typhimurium",
    "answer_label": "No"
  },
  {
    "molecule": "Nc1ccn([C@@H]2CS[C@H](CO)O2)c(=O)n1 [Lamivudine]",
    "study_system": "Salmonella enterica typhimurium",
    "answer_label": "No"
  },
  {
    "molecule": "CC[C@H](C)[C@H](N)C1=N[C@H](C(=O)N[C@@H](CC(C)C)C(=O)N[C@H](CCC(=O)O)C(=O)N[C@H](C(=O)N[C@H]2CCCCNC(=O)[C@H](CC(N)=O)NC(=O)[C@@H](CC(=O)O)NC(=O)[C@H](Cc3cnc[nH]3)NC(=O)[C@@H](Cc3ccccc3)NC(=O)[C@H]([C@@H](C)CC)NC(=O)[C@@H](CCCN)NC2=O)[C@@H](C)CC)CS1 [Bacitracin]",
    "study_system": "Salmonella enterica typhimurium",
    "answer_label": "No"
  },
  {
    "molecule": "COc1ccc2cc([C@@H](C)C(=O)O)ccc2c1 [(R) Naproxen sodium salt]",
    "study_system": "Salmonella enterica typhimurium",
    "answer_label": "No"
  },
  {
    "molecule": "CCN(Cc1ccncc1)C(=O)C(CO)c1ccccc1 (stereo not given) [Tropicamide]",
    "study_system": "Salmonella enterica typhimurium",
    "answer_label": "No"
  },
  {
    "molecule": "CC(=O)OCC(=O)[C@@]1(O)CC[C@H]2[C@@H]3CCC4=CC(=O)CC[C@]4(C)[C@H]3[C@@H](O)C[C@@]21C [Cortisol acetate]",
    "study_system": "Salmonella enterica typhimurium",
    "answer_label": "No"
  },
  {
    "molecule": "CC(=O)Nc1nnc(S(N)(=O)=O)s1 [Acetazolamide]",
    "study_system": "Salmonella enterica typhimurium",
    "answer_label": "No"
  },
  {
    "molecule": "Cc1c(Cl)cccc1Nc1ccccc1C(=O)O [Tolfenamic acid]",
    "study_system": "Salmonella enterica typhimurium",
    "answer_label": "No"
  },
  {
    "molecule": "NS(=O)(=O)c1cc2c(cc1Cl)NC(C(Cl)Cl)NS2(=O)=O (stereo not given) [Trichlormethiazide]",
    "study_system": "Salmonella enterica typhimurium",
    "answer_label": "No"
  },
  {
    "molecule": "CC(=O)c1ccc2c(c1)N(CCCN(C)C)c1ccccc1S2 [Acetopromazine maleate salt]",
    "study_system": "Salmonella enterica typhimurium",
    "answer_label": "No"
  },
  {
    "molecule": "N=C(NCCCCCCNC(=N)NC(=N)Nc1ccc(Cl)cc1)NC(=N)Nc1ccc(Cl)cc1 [Chlorhexidine]",
    "study_system": "Salmonella enterica typhimurium",
    "answer_label": "Yes"
  },
  {
    "molecule": "CN(C)CCC(c1ccc(Br)cc1)c1ccccn1 (stereo not given) [Brompheniramine maleate]",
    "study_system": "Salmonella enterica typhimurium",
    "answer_label": "No"
  },
  {
    "molecule": "Cc1cnc(C(=O)NCCc2ccc(S(=O)(=O)NC(=O)NC3CCCCC3)cc2)cn1 [Glipizide]",
    "study_system": "Salmonella enterica typhimurium",
    "answer_label": "No"
  },
  {
    "molecule": "CC(=O)O[C@]1(C(C)=O)CC[C@H]2[C@@H]3C=C(C)C4=CC(=O)CC[C@@H]4[C@H]3CC[C@@]21C [Nomegestrol acetate]",
    "study_system": "Salmonella enterica typhimurium",
    "answer_label": "No"
  }
]

----------
Test system: Yersinia pseudotuberculosis
assay_comment: growth AUC normalised to DMSO control (fraction of control); higher = less growth inhibition, active = hit call of the paper
condition_info: 20 µM
Structures can show the parent of a compound that is named as a salt.

[
  {
    "compound": "CN(Cc1cnc2nc(N)nc(N)c2n1)c1ccc(C(=O)N[C@@H](CCC(=O)O)C(=O)O)cc1 [Amethopterin]",
    "study_system": "Yersinia pseudotuberculosis",
    "growth AUC normalised to DMSO control": 0.982
  },
  {
    "compound": "COc1ccccc1OCC(O)CO (stereo not drawn) [Guaifenesin]",
    "study_system": "Yersinia pseudotuberculosis",
    "growth AUC normalised to DMSO control": 0.992
  },
  {
    "compound": "CC(C)(C)NCC(O)c1cc(O)cc(O)c1 (stereo not drawn) [Terbutaline hemisulfate]",
    "study_system": "Yersinia pseudotuberculosis",
    "growth AUC normalised to DMSO control": 1
  },
  {
    "compound": "Cc1ccc(NC(=O)c2ccc(CN3CCN(C)CC3)cc2)cc1Nc1nccc(-c2cccnc2)n1 [Imatinib]",
    "study_system": "Yersinia pseudotuberculosis",
    "growth AUC normalised to DMSO control": 0.991
  },
  {
    "compound": "C[C@H]1C[C@@H]2[C@H]([C@@H](O)C[C@@]3(C)[C@H]2CC[C@]3(O)C(=O)CO)[C@@]2(C)C=CC(=O)C=C12 [Methylprednisolone, 6-alpha]",
    "study_system": "Yersinia pseudotuberculosis",
    "growth AUC normalised to DMSO control": 0.993
  },
  {
    "compound": "N=C(N)N1CCc2ccccc2C1 [Debrisoquin sulfate]",
    "study_system": "Yersinia pseudotuberculosis",
    "growth AUC normalised to DMSO control": 1.01
  },
  {
    "compound": "COc1ccc(CC(C)NCC(O)c2ccc(O)c(NC=O)c2)cc1 (stereo not drawn) [Formoterol fumarate]",
    "study_system": "Yersinia pseudotuberculosis",
    "growth AUC normalised to DMSO control": 1.05
  },
  {
    "compound": "NCCCC(O)(P(=O)(O)O)P(=O)(O)O [Alendronate sodium]",
    "study_system": "Yersinia pseudotuberculosis",
    "growth AUC normalised to DMSO control": 1.02
  }
]
